readout-label: melting point

Take a look at these entries with their results.
N#Cc1cc(-c2nc3cncnc3s2)ccc1Oc1ccccc1O	255 to 256 °C
N#Cc1cc(-c2nc3cncnc3s2)ccc1Oc1ccc(O)cc1	> 250 °C
N#Cc1cc(-c2nc3cncnc3s2)ccc1Oc1ccccc1	154 to 156 °C

Input line: Using the record for "N#Cc1cc(-c2nc3cncnc3s2)ccc1Oc1ccc(Cl)cc1" , report its melting point.
Output line: 179 to 180 °C

Input line: # melting point lookup, item "N#Cc1cc(-c2nc3cncnc3s2)ccc1Oc1cccc(F)c1"
Output line: 189 to 190 °C

Input line: Item under review: "N#Cc1cc(-c2nc3cncnc3s2)ccc1Oc1cccnc1" . Reported melting point?
Output line: 210 to 212 °C
